test: Cytotoxicity against African green monkey Vero cells by XTT assay; assay type: cell-based; conditions: chlorocebus sabaeus
RESULT TYPE: CC50

These solved cases illustrate the format of a correct answer.
1. O=[N+]([O-])c1cc(S(=O)(=O)C(F)(F)I)ccc1N/N=C\c1ccc(C2=C3C=CC=[N+]3[B-](F)(F)n3cccc32)cc1 ... ≥ 8 µg/mL
2. NNc1ccc(S(=O)(=O)C(F)(F)I)cc1[N+](=O)[O-] ... ≥ 32 µg/mL
3. NNc1ccc(S(=O)(=O)C(Cl)(Cl)Br)cc1[N+](=O)[O-] ... ≥ 8 µg/mL

// moving on: another record for CC50
Using the record for O=[N+]([O-])c1cc(S(=O)(=O)C(Cl)(Cl)Br)ccc1N/N=C\c1ccc(C2=C3C=CC=[N+]3[B-](F)(F)n3cccc32)cc1 , report its CC50.
≥ 8 µg/mL

* * *

tested on: Candida albicans; assay: Antifungal activity against Candida albicans 90028 assessed as fungal growth inhibition at 0.0625 ug/ml measured after 48 hrs by microdilution method relative to control; type: functional; details: read-out: GI
RESULT TYPE: inhibition of growth at 0.0625 µg/mL (%)
Provide only the numeric value, understood in %.

Field request: inhibition of growth at 0.0625 µg/mL | item: O=[N+]([O-])c1cc(S(=O)(=O)C(F)(F)Cl)ccc1N/N=C\c1ccc(C2=C3C=CC=[N+]3[B-](F)(F)n3cccc32)cc1
99.8

Which inhibition of growth at 0.0625 µg/mL value is on record for NNc1ccc(S(=O)(=O)C(Cl)(Cl)Br)cc1[N+](=O)[O-] ?
98.9

Look up inhibition of growth at 0.0625 µg/mL for this compound: NNc1ccc(S(=O)(=O)C(F)(F)I)cc1[N+](=O)[O-]
15.5

* * *

test system: Candida albicans; experiment: Antifungal activity against Candida albicans 90028 assessed as fungal growth inhibition at 0.125 ug/ml measured after 48 hrs by microdilution method relative to control; type: functional; conditions: read-out: GI
RESULT TYPE: inhibition of growth at 0.125 µg/mL (%)
Field format: number, assumed %, no unit text.

1. O=[N+]([O-])c1cc(S(=O)(=O)C(Cl)(Cl)Br)ccc1N/N=C\c1ccc(C2=C3C=CC=[N+]3[B-](F)(F)n3cccc32)cc1 ... 99.7
2. O=[N+]([O-])c1cc(S(=O)(=O)C(F)(F)Cl)ccc1N/N=C\c1ccc(C2=C3C=CC=[N+]3[B-](F)(F)n3cccc32)cc1 ... 100
3. NNc1ccc(S(=O)(=O)C(F)(F)Cl)cc1[N+](=O)[O-] ... 98.1
4. NNc1ccc(S(=O)(=O)C(F)(F)I)cc1[N+](=O)[O-] ... 22.9
5. O=[N+]([O-])c1cc(S(=O)(=O)C(F)(F)I)ccc1N/N=C\c1ccc(C2=C3C=CC=[N+]3[B-](F)(F)n3cccc32)cc1 ... 95.5

Consider the additional compound presented here.
I have this compound here, NNc1ccc(S(=O)(=O)C(Cl)(Cl)Br)cc1[N+](=O)[O-] , and I need its recorded inhibition of growth at 0.125 µg/mL.
98.9

* * *

test: Toxicity in Galleria mellonella larvae assessed as survival at 16 ug/ml relative to control; conditions: at 16 µg/mL
RESULT TYPE: survival (%)
The response must be a number in % with no trailing unit.

Would you please look over these solved cases?
1. O=[N+]([O-])c1cc(S(=O)(=O)C(F)(F)Cl)ccc1N/N=C\c1ccc(C2=C3C=CC=[N+]3[B-](F)(F)n3cccc32)cc1 ... 93
2. O=[N+]([O-])c1cc(S(=O)(=O)C(Cl)(Cl)Br)ccc1N/N=C\c1ccc(C2=C3C=CC=[N+]3[B-](F)(F)n3cccc32)cc1 ... 93
3. NNc1ccc(S(=O)(=O)C(F)(F)Cl)cc1[N+](=O)[O-] ... 93

Return reported survival; argument: NNc1ccc(S(=O)(=O)C(F)(F)I)cc1[N+](=O)[O-]
100

Requested field: survival. Item: O=[N+]([O-])c1cc(S(=O)(=O)C(F)(F)I)ccc1N/N=C\c1ccc(C2=C3C=CC=[N+]3[B-](F)(F)n3cccc32)cc1
100

Entry under review: NNc1ccc(S(=O)(=O)C(Cl)(Cl)Br)cc1[N+](=O)[O-] . Reported survival?
93

* * *

test system: Candida albicans; test: Antifungal activity against Candida albicans 90028 assessed as fungal growth inhibition at 0.5 ug/ml measured after 18 hrs by microdilution method relative to control; type: functional; conditions: read-out: GI
Below is a list of entries, each paired with its recorded inhibition of growth at 0.5 µg/mL value.
Numbers only here, please. The scale is %.

Use these answered entries as a reference point.
1) NNc1ccc(S(=O)(=O)C(F)(F)Cl)cc1[N+](=O)[O-] ... 99.9
2) O=[N+]([O-])c1cc(S(=O)(=O)C(F)(F)Cl)ccc1N/N=C\c1ccc(C2=C3C=CC=[N+]3[B-](F)(F)n3cccc32)cc1 ... 99.8
3) NNc1ccc(S(=O)(=O)C(F)(F)I)cc1[N+](=O)[O-] ... 99.7

What does the record list as inhibition of growth at 0.5 µg/mL for O=[N+]([O-])c1cc(S(=O)(=O)C(F)(F)I)ccc1N/N=C\c1ccc(C2=C3C=CC=[N+]3[B-](F)(F)n3cccc32)cc1 ?
100

State the recorded inhibition of growth at 0.5 µg/mL for this entry: O=[N+]([O-])c1cc(S(=O)(=O)C(Cl)(Cl)Br)ccc1N/N=C\c1ccc(C2=C3C=CC=[N+]3[B-](F)(F)n3cccc32)cc1
100

Value lookup for inhibition of growth at 0.5 µg/mL; key = NNc1ccc(S(=O)(=O)C(Cl)(Cl)Br)cc1[N+](=O)[O-]
99.7

* * *

tested on: Candida albicans; assay: Antifungal activity against Candida albicans 90028 assessed as fungal growth inhibition at 0.25 ug/ml measured after 18 hrs by microdilution method relative to control; assay type: functional; conditions: read-out: GI
RESULT TYPE: inhibition of growth at 0.25 µg/mL
The answer should read as a number with its unit following.

Consider the reported inhibition of growth at 0.25 µg/mL for these compounds:
1) NNc1ccc(S(=O)(=O)C(Cl)(Cl)Br)cc1[N+](=O)[O-] ... 98.9%
2) O=[N+]([O-])c1cc(S(=O)(=O)C(Cl)(Cl)Br)ccc1N/N=C\c1ccc(C2=C3C=CC=[N+]3[B-](F)(F)n3cccc32)cc1 ... 100%
3) NNc1ccc(S(=O)(=O)C(F)(F)Cl)cc1[N+](=O)[O-] ... 98.8%

Request - read-out inhibition of growth at 0.25 µg/mL | tested on Candida albicans | compound O=[N+]([O-])c1cc(S(=O)(=O)C(F)(F)I)ccc1N/N=C\c1ccc(C2=C3C=CC=[N+]3[B-](F)(F)n3cccc32)cc1
100%

Request - read-out inhibition of growth at 0.25 µg/mL | tested on Candida albicans | compound O=[N+]([O-])c1cc(S(=O)(=O)C(F)(F)Cl)ccc1N/N=C\c1ccc(C2=C3C=CC=[N+]3[B-](F)(F)n3cccc32)cc1
100%

Enter reported inhibition of growth at 0.25 µg/mL observed with Candida albicans for NNc1ccc(S(=O)(=O)C(F)(F)I)cc1[N+](=O)[O-]
100%

* * *

Let's look at some molecules and their measured inhibition of growth at 2 µg/mL.
test system: Candida albicans; assay: Antifungal activity against Candida albicans 90028 assessed as fungal growth inhibition at 2 ug/ml measured after 48 hrs by microdilution method relative to control; format: functional; settings: read-out: GI
Report as a plain number; the unit % is understood.

Please review the entries below; each comes with its answer.
1. O=[N+]([O-])c1cc(S(=O)(=O)C(F)(F)Cl)ccc1N/N=C\c1ccc(C2=C3C=CC=[N+]3[B-](F)(F)n3cccc32)cc1 ... 100
2. O=[N+]([O-])c1cc(S(=O)(=O)C(F)(F)I)ccc1N/N=C\c1ccc(C2=C3C=CC=[N+]3[B-](F)(F)n3cccc32)cc1 ... 100
3. NNc1ccc(S(=O)(=O)C(F)(F)Cl)cc1[N+](=O)[O-] ... 99.7

Item under review: O=[N+]([O-])c1cc(S(=O)(=O)C(Cl)(Cl)Br)ccc1N/N=C\c1ccc(C2=C3C=CC=[N+]3[B-](F)(F)n3cccc32)cc1 . Reported inhibition of growth at 2 µg/mL?
100

Tell me the measured inhibition of growth at 2 µg/mL of NNc1ccc(S(=O)(=O)C(Cl)(Cl)Br)cc1[N+](=O)[O-] , please.
99.9

What value of measured inhibition of growth at 2 µg/mL is listed for NNc1ccc(S(=O)(=O)C(F)(F)I)cc1[N+](=O)[O-] ?
72.8

* * *

assay: Cytotoxicity against human MRC5 cells by CellTiter 96 Aqueous One Solution Reagent based assay; format: cell-based
Catalogue of CC50 values

1) NNc1ccc(S(=O)(=O)C(F)(F)I)cc1[N+](=O)[O-] ... ≥ 16 µg/mL
2) O=[N+]([O-])c1cc(S(=O)(=O)C(F)(F)I)ccc1N/N=C\c1ccc(C2=C3C=CC=[N+]3[B-](F)(F)n3cccc32)cc1 ... ≥ 16 µg/mL
3) NNc1ccc(S(=O)(=O)C(Cl)(Cl)Br)cc1[N+](=O)[O-] ... ≥ 16 µg/mL
4) O=[N+]([O-])c1cc(S(=O)(=O)C(F)(F)Cl)ccc1N/N=C\c1ccc(C2=C3C=CC=[N+]3[B-](F)(F)n3cccc32)cc1 ... ≥ 16 µg/mL
5) NNc1ccc(S(=O)(=O)C(F)(F)Cl)cc1[N+](=O)[O-] ... ≥ 16 µg/mL

Here is another compound to look at.
CC50 lookup needed for O=[N+]([O-])c1cc(S(=O)(=O)C(Cl)(Cl)Br)ccc1N/N=C\c1ccc(C2=C3C=CC=[N+]3[B-](F)(F)n3cccc32)cc1 , thanks.
≥ 256 µg/mL

Where do these numbers come from? They come from ChEMBL document CHEMBL4680208.
